molecular target: ER (Homo sapiens, UniProt P03372); construct: host or cells: T47D and MCF7 human breast cancer cells; assay: ER degradation activity, in-cell western blot analysis in T47D cells; type: cell-based; conditions: 16 hours, Table A does not say which cell line (T47D or MCF7), read-out: Potency (DC50)
recorded_endpoint: DC50

The examples below pair each entry with its known result.
O=C1CCC(N2C(=O)c3cc4c(cc3C2=O)CN(C2CCC(NCC3CN(c5ccc([C@@H]6c7ccc(O)cc7CC[C@@H]6c6ccccc6)cc5)C3)CC2)C4)C(=O)N1 (stereo partly drawn) [E 339]	> 100 nM
C[C@@H]1Cc2c([nH]c3ccccc23)[C@@H](c2c(F)cc(N3CCCC(CN4CCC(C(=O)N5Cc6cc7c(cc6C5)C(=O)N(C5CCC(=O)NC5=O)C7=O)CC4)C3)cc2F)N1CC(F)F (stereo partly drawn) [E 58]	10 to 100 nM

Proceed to the following item.
Fill in: DC50 of C[C@@H]1Cc2c([nH]c3ccccc23)[C@@H](c2c(F)cc(N3CC4(CCCN(CC(=O)N5Cc6cc7c(cc6C5)C(=O)N(C5CCC(=O)NC5=O)C7=O)C4)C3)cc2F)N1CC(F)F (stereo partly drawn) [E 105] is ___
> 100 nM

* * *

Record form. Attribute: DC50. Fill in for each entry.
Target: ER (Homo sapiens)
Construct: host or cells: T47D and MCF7 human breast cancer cells
Sequence (P03372 1-595): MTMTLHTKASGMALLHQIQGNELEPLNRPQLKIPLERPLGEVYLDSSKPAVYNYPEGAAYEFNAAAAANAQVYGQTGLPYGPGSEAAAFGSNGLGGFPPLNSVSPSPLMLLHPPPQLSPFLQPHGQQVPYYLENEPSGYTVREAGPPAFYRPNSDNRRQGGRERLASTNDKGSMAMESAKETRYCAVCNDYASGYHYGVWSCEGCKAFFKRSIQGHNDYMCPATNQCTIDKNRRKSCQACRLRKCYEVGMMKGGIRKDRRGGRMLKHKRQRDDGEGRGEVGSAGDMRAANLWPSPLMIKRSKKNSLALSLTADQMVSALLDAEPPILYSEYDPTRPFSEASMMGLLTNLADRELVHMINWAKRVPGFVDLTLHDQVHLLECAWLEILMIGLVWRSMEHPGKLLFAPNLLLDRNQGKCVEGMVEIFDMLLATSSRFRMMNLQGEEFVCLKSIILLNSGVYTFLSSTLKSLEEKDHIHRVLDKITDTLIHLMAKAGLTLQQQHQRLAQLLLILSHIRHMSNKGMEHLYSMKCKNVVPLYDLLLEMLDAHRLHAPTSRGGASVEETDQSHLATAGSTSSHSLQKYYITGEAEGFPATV
Assay: ER degradation activity, in-cell western blot analysis in T47D cells
Type: cell-based
Settings: 16 hours, Table A does not say which cell line (T47D or MCF7), read-out: Potency (DC50)

Study these solved cases before continuing.
O=C1CCC(N2C(=O)c3cc4c(cc3C2=O)CN(C(=O)CN2CCC3(CCN(c5ccc([C@@H]6c7ccc(O)cc7CC[C@@H]6c6ccccc6)cc5)CC3)C2)C4)C(=O)N1 (mixture of isomers)	> 100 nM
O=C1CCC(N2C(=O)c3cc4c(cc3C2=O)CN(CC2CN(C(=O)C3CN(c5ccc([C@@H]6c7ccc(O)cc7CC[C@@H]6c6ccccc6)cc5)C3)C2)C4)C(=O)N1 (mixture of isomers) [E 158]	> 100 nM
O=C1CCC(N2C(=O)c3cc4c(cc3C2=O)CN(CC(=O)N2CCC[C@H](Oc3ccc([C@@H]5c6ccc(O)cc6CC[C@@H]5c5ccc(F)cc5)cc3)C2)C4)C(=O)N1 (mixture of isomers)	> 100 nM
O=C1CCC(N2C(=O)c3cc4c(cc3C2=O)CN(C2CCC3(CC2)CCN(c2ccc([C@@H]5c6ccc(O)cc6CC[C@@H]5c5ccccc5)cc2)CC3)C4)C(=O)N1 (some centres unmarked)	> 100 nM
C[C@@H]1Cc2c([nH]c3ccccc23)[C@@H](c2c(F)cc(N3CCC(CC(=O)N4Cc5cc6c(cc5C4)C(=O)N(C4CCC(=O)NC4=O)C6)CC3)cc2F)N1CC(F)F (some centres unmarked)	> 100 nM
C[C@@H]1Cc2cc(O)ccc2[C@@H](c2ccc(N3CCC(C(=O)N4CC(CN5Cc6cc7c(cc6C5)C(=O)N(C5CCC(=O)NC5=O)C7=O)C4)CC3)cc2F)N1CC(F)F (some centres unmarked)	> 100 nM
C[C@@H]1Cc2c([nH]c3ccccc23)[C@@H](c2c(F)cc(N3CCC(N4CCC(CN5Cc6cc7c(cc6C5)C(=O)N(C5CCC(=O)NC5=O)C7=O)CC4)CC3)cc2F)N1CC(F)F (some centres unmarked)	> 100 nM
C[C@@H]1Cc2cc(O)ccc2[C@@H](c2ccc(N3CCC(C(=O)N4CCC(N5Cc6cc7c(cc6C5)C(=O)N(C5CCC(=O)NC5=O)C7=O)CC4)CC3)cc2F)N1CC(F)F (some centres unmarked)	< 10 nM
C[C@@H]1Cc2c([nH]c3ccccc23)[C@@H](c2c(F)cc(N3CCC(C(=O)N4CCC(CN5Cc6cc7c(cc6C5)C(=O)N(C5CCC(=O)NC5=O)C7=O)CC4)CC3)cc2F)N1CC(F)F (some centres unmarked) [E 233]	> 100 nM
O=C1CCC(N2C(=O)c3cc4c(cc3C2=O)CN(CC2CCN(C(=O)C3CCN(c5ccc([C@@H]6c7ccc(O)cc7CC[C@@H]6c6ccccc6)cc5)CC3)CC2)C4)C(=O)N1 (mixture of isomers) [E 14]	10 to 100 nM

For each of the items listed, what is its DC50?
1. CN(C1CCN(c2ccc([C@@H]3c4ccc(O)cc4CC[C@@H]3c3ccccc3)cc2)CC1)N1CCC(C(=O)N2Cc3cc4c(cc3C2)C(=O)N(C2CCC(=O)NC2=O)C4=O)CC1 (mixture of isomers)
2. CN(c1ccc([C@H]2c3ccc(O)cc3CC[C@H]2c2ccccc2)cc1)C1CN([C@H]2CC[C@H](C(=O)N3Cc4cc5c(cc4C3)C(=O)N(C3CCC(=O)NC3=O)C5=O)CC2)C1 (some centres unmarked) [E 394]
3. CCC(=C(c1ccc(O)cc1)c1ccc(N2CCC3(CCN(C(=O)CN4Cc5cc6c(cc5C4)C(=O)N(C4CCC(=O)NC4=O)C6=O)CC3)C2)cc1)c1ccccc1 (centres unmarked)
4. C[C@@H]1Cc2c([nH]c3ccccc23)[C@@H](c2c(F)cc(N3CCC4(CC3)CN(CC3Cc5cc6c(cc5C3)C(=O)N(C3CCC(=O)NC3=O)C6=O)C4)cc2F)N1CC(F)F (some centres unmarked)
5. C[C@@H]1CC2(CCN(c3ccc([C@@H]4c5ccc(O)cc5CC[C@@H]4c4ccc(F)cc4)cc3)CC2)CN1CC(=O)N1Cc2cc3c(cc2C1)C(=O)N(C1CCC(=O)NC1=O)C3=O (mixture of isomers)
6. CCC(=C(c1ccc(O)cc1)c1ccc(N2CCC3(CC2)CN(C(=O)CN2CCc4cc5c(cc4C2)C(=O)N(C2CCC(=O)NC2=O)C5=O)C3)cc1)c1ccccc1 (centres unmarked)
7. C[C@@H]1Cc2cc(O)ccc2[C@@H](c2c(F)cc(N3CCC4(CN(C(=O)CN5Cc6cc7c(cc6C5)C(=O)N(C5CCC(=O)NC5=O)C7=O)C4)C3)cc2F)N1CC(F)F (some centres unmarked)

1. 10 to 100 nM
2. > 100 nM
3. 10 to 100 nM
4. > 100 nM
5. > 100 nM
6. 10 to 100 nM
7. 10 to 100 nM

* * *

Target: ER (Homo sapiens, UniProt P03372)
Construct: host or cells: T47D and MCF7 human breast cancer cells
Sequence (P03372 1-595): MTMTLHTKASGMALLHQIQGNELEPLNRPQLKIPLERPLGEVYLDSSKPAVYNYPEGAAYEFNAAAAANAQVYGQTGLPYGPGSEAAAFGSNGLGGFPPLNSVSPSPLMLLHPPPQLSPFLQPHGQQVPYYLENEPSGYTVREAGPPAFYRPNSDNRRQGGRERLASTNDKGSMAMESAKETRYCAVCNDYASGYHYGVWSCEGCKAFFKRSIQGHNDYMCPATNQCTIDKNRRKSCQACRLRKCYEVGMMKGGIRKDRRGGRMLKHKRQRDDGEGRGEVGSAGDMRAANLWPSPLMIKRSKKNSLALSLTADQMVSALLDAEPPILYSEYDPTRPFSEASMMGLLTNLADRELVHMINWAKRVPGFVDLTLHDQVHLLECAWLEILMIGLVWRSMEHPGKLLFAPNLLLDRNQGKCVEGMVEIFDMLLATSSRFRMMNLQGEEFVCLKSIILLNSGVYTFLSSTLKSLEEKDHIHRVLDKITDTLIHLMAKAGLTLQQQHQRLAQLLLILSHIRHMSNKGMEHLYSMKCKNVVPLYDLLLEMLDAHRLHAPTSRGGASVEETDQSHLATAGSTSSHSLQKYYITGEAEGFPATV
Assay: ER degradation activity, in-cell western blot analysis in T47D cells
Assay type: cell-based
Details: compounds 16 hours, Table A does not say whether T47D or MCF7, read-out: Potency (DC50)
recorded_endpoint: DC50

C[C@@H]1Cc2cc(O)ccc2[C@H](c2c(F)cc(C(=O)N3CC4(CCN(C(=O)CN5Cc6cc7c(cc6C5)C(=O)N(C5CCC(=O)NC5=O)C7=O)CC4)C3)cc2F)N1CC(F)F (some centres unmarked) [E 458]	> 0.1 µM
C[C@@H]1Cc2c([nH]c3ccccc23)[C@@H](c2ccc(C3=CCC(C(=O)N4CCC(N5Cc6cc7c(cc6C5)C(=O)N(C5CCC(=O)NC5=O)C7=O)CC4)CC3)cc2F)N1CC(C)(C)F (some centres unmarked) [E 481]	0.01 to 0.1 µM
C[C@@H]1Cc2c([nH]c3ccccc23)[C@@H](c2ccc(C3=CCC(C(=O)N4CCC(N5Cc6cc7c(cc6C5)C(=O)N(C5CCC(=O)NC5=O)C7=O)CC4)CC3)cc2F)N1CC(C)(F)F (some centres unmarked) [E 482]	> 0.1 µM

Need DC50 for each of these molecules.
1. O=C1CCC(N2C(=O)c3cc4c(cc3C2=O)CC2(C4)CN(C(=O)C3CCN(c4ccc([C@@H]5c6ccc(O)cc6CC[C@@H]5c5ccccc5)cc4)CC3)C2)C(=O)N1 (some centres unmarked) [E 501]
2. C[C@@H]1Cc2c([nH]c3ccccc23)[C@@H](c2ncc(C3=CCC(C(=O)N4CCC(N5Cc6cc7c(cc6C5)C(=O)N(C5CCC(=O)NC5=O)C7=O)CC4)CC3)cc2F)N1CC(F)F (some centres unmarked) [E 399]

1. > 0.1 µM
2. > 0.1 µM
